Provenance of the data: paper PMC8703884

Each entry below carries its recorded CC50.
# Tested on: HCT116^−/− human colon cancer cells (p53 negative)
# Assay Notes: MTT cytotoxicity test, HCT116 p53-/-
# Condition Set: HCT-116, read-out: CC50, HCT^−/−

- Molecule: "CN1CC2(NC(=S)N(c3ccc(F)cc3)C2=O)C2(C1)C(=O)Nc1ccccc12 (centres unmarked)"
  CC50: "42.4 µM"
- Molecule: "CN1CC2(NC(=S)N(c3ccccc3)C2=O)C2(C1)C(=O)Nc1ccccc12 (centres unmarked)"
  CC50: "> 100 µM"
- Molecule: "C=CCN1C(=O)C2(CN(C)CC23C(=O)Nc2ccc(Cl)cc23)NC1=S (centres unmarked)"
  CC50: "40.1 µM"
- Molecule: "CN1CC2(NC(=S)N(Cc3cccc(Cl)c3)C2=O)C2(C1)C(=O)Nc1ccccc12 (centres unmarked)"
  CC50: "> 100 µM"
- Molecule: "CN1CC2(NC(=S)N(c3ccc(Cl)cc3)C2=O)C2(C1)C(=O)Nc1ccc(Cl)cc12 (centres unmarked)"
  CC50: "57.1 µM"
- Molecule: "CCOc1ccc(N2C(=O)C3(CN(C)CC34C(=O)Nc3ccc(Cl)cc34)NC2=S)cc1 (centres unmarked)"
  CC50: "> 100 µM"
- Molecule: "CN1CC2(NC(=S)N(c3ccc(F)c(Cl)c3)C2=O)C2(C1)C(=O)Nc1ccccc12 (centres unmarked)"
  CC50: "> 100 µM"
- Molecule: "C=CCN1C(=O)C2(CN(C)CC23C(=O)Nc2ccccc23)NC1=S (centres unmarked)"
  CC50: "14.3 µM"
- Molecule: "COc1ccc(N2C(=O)C3(CN(C)CC34C(=O)Nc3ccccc34)NC2=S)cc1 (centres unmarked)"
  CC50: "36 µM"
- Molecule: "CCOc1ccc(N2C(=O)C3(CN(C)CC34C(=O)Nc3ccccc34)NC2=S)cc1 (centres unmarked)"
  CC50: "> 100 µM"
- Molecule: "CN1CC2(NC(=S)N(c3ccc(F)cc3)C2=O)C2(C1)C(=O)Nc1ccc(Cl)cc12 (centres unmarked)"
  CC50: "> 100 µM"
- Molecule: "CN1CC2(NC(=S)N(C3CC3)C2=O)C2(C1)C(=O)Nc1ccc(Cl)cc12 (centres unmarked)"
  CC50: "> 100 µM"
- Molecule: "CN1CC2(NC(=S)N(Cc3cccc(Cl)c3)C2=O)C2(C1)C(=O)Nc1ccc(Cl)cc12 (centres unmarked)"
  CC50: "> 100 µM"
- Molecule: "Cc1ccc(N2C(=O)C3(CN(C)CC34C(=O)Nc3ccccc34)NC2=S)cc1 (centres unmarked)"
  CC50: "> 100 µM"
- Molecule: "CN1CC2(NC(=S)N(CCCN3CCOCC3)C2=O)C2(C1)C(=O)Nc1ccccc12 (centres unmarked)"
  CC50: "> 100 µM"
- Molecule: "CN1CC2(NC(=S)N(Cc3ccccc3)C2=O)C2(C1)C(=O)Nc1ccccc12 (centres unmarked)"
  CC50: "40.1 µM"
- Molecule: "CN1CC2(NC(=S)N(C3CC3)C2=O)C2(C1)C(=O)Nc1ccccc12 (centres unmarked)"
  CC50: "> 100 µM"

---

Below is a list of entries, each paired with its recorded log10 CC50 at 72 h value.
# Assay Notes: MTT cytotoxicity test, Hek293T
# Format: cell-based
# Condition Set: human, 72 h incubation
Property Label: log10 CC50 at 72 h (log10 of the value in µM)

- Compound: "Cc1ccc(N2C(=O)C3(CN(C)CC34C(=O)Nc3ccc(Cl)cc34)NC2=S)cc1 (stereo not drawn)"
  log10 CC50 at 72 h: 1.24
- Compound: "CN1CC2(NC(=S)N(c3ccccc3)C2=O)C2(C1)C(=O)Nc1ccccc12 (stereo not drawn)"
  log10 CC50 at 72 h: 1.88
- Compound: "CN1CC2(NC(=S)N(Cc3cccc(Cl)c3)C2=O)C2(C1)C(=O)Nc1ccccc12 (stereo not drawn)"
  log10 CC50 at 72 h: 1.68
- Compound: "CN1CC2(NC(=S)N(Cc3cccc(Cl)c3)C2=O)C2(C1)C(=O)Nc1ccc(Cl)cc12 (stereo not drawn)"
  log10 CC50 at 72 h: 1.26
- Compound: "CN1CC2(NC(=S)N(c3ccc(F)cc3)C2=O)C2(C1)C(=O)Nc1ccc(Cl)cc12 (stereo not drawn)"
  log10 CC50 at 72 h: 1.72
- Compound: "CN1CC2(NC(=S)N(c3ccc(F)c(Cl)c3)C2=O)C2(C1)C(=O)Nc1ccccc12 (stereo not drawn)"
  log10 CC50 at 72 h: 1.84
- Compound: "COc1cc([C@@H]2c3cc4c(cc3[C@@H](O[C@@H]3O[C@@H]5CO[C@@H](C)O[C@H]5[C@H](O)[C@H]3O)[C@H]3COC(=O)[C@H]23)OCO4)cc(OC)c1O [Etoposide, reference compound]"
  log10 CC50 at 72 h: -0.52
- Compound: "CN1CC2(NC(=[Se])N(c3ccc(F)c(Cl)c3)C2=O)C2(C1)C(=O)Nc1ccc(Cl)cc12 (stereo not drawn)"
  log10 CC50 at 72 h: 1.08
- Compound: "CN1CC2(NC(=S)N(Cc3ccccc3)C2=O)C2(C1)C(=O)Nc1ccc(Cl)cc12 (stereo not drawn)"
  log10 CC50 at 72 h: 0.98
- Compound: "CN1CC2(NC(=S)N(Cc3ccccc3)C2=O)C2(C1)C(=O)Nc1ccccc12 (stereo not drawn)"
  log10 CC50 at 72 h: 0.99
- Compound: "COc1ccc(N2C(=O)[C@@]3(CN(C)C[C@@]34C(=O)Nc3ccc(Cl)cc34)NC2=S)cc1 (racemic)"
  log10 CC50 at 72 h: 0.04
- Compound: "CN1CC2(NC(=S)N(CCCN3CCOCC3)C2=O)C2(C1)C(=O)Nc1ccc(Cl)cc12 (stereo not drawn)"
  log10 CC50 at 72 h: 2.01
- Compound: "CCOc1ccc(N2C(=O)C3(CN(C)CC34C(=O)Nc3ccccc34)NC2=S)cc1 (stereo not drawn)"
  log10 CC50 at 72 h: 1.48
- Compound: "CN1CC2(NC(=S)N(c3ccc(F)c(Cl)c3)C2=O)C2(C1)C(=O)Nc1ccc(Cl)cc12 (stereo not drawn)"
  log10 CC50 at 72 h: 1.05
- Compound: "C=CCN1C(=O)C2(CN(C)CC23C(=O)Nc2ccccc23)NC1=S (stereo not drawn)"
  log10 CC50 at 72 h: 1.62
- Compound: "C=CCN1C(=O)C2(CN(C)CC23C(=O)Nc2ccc(Cl)cc23)NC1=S (stereo not drawn)"
  log10 CC50 at 72 h: 1.06
- Compound: "COc1ccc(N2C(=O)C3(CN(C)CC34C(=O)Nc3ccccc34)NC2=S)cc1 (stereo not drawn)"
  log10 CC50 at 72 h: 0.81
- Compound: "CN1CC2(NC(=S)N(c3ccc(Cl)cc3)C2=O)C2(C1)C(=O)Nc1ccc(Cl)cc12 (stereo not drawn)"
  log10 CC50 at 72 h: 1.53
- Compound: "COc1ccc(N2C(=O)C3(CN(C)CC34C(=O)Nc3ccc(Cl)cc34)NC2=[Se])cc1 (stereo not drawn)"
  log10 CC50 at 72 h: 1.15
- Compound: "CCOc1ccc(N2C(=O)C3(CN(C)CC34C(=O)Nc3ccc(Cl)cc34)NC2=S)cc1 (stereo not drawn)"
  log10 CC50 at 72 h: 0.83
- Compound: "CN1CC2(NC(=O)N(c3ccc(F)c(Cl)c3)C2=O)C2(C1)C(=O)Nc1ccc(Cl)cc12 (stereo not drawn)"
  log10 CC50 at 72 h: 1.18
